experimental.target: SARS-CoV-2 M^pro (Severe acute respiratory syndrome coronavirus 2)
test.details: biochemical
test.parameters: read-out: IC50 against M^pro

| molecule | IC50 |
| --- | --- |
| O=C(NC1CC1)C(=O)C(Cc1ccccc1)NC(=O)C1CCC(=O)N1Cc1ccccc1 (stereo not shown) [Compound 2, ABT-957, reference compound] | > 100 µM |

---

M^pro % inhibition at 10 µM values, listed per item
experimental.target: SARS-CoV-2 M^pro (Severe acute respiratory syndrome coronavirus 2, UniProt P0DTD1)
test.details: biochemical
test.parameters: ReFRAME hits, 10 µM
measured.attribute: M^pro % inhibition at 10 µM (%)

| compound | reported.measurement |
| --- | --- |
| CC(=O)Oc1ccccc1C(=O)OC1OC(=O)c2ccccc21 (stereo not shown) [talosalate] | 80 |
| CCC[C@@H](NC(=O)N1C(=O)C(CC)(CC)[C@@H]1Oc1ccc(CC(=O)O)cc1)c1ccc(C)cc1 | 36 |
| CN(C/C=C/C#CC(C)(C)C)Cc1cccc2c(F)cc(F)cc12 | -1 |
| O=C(O)c1cccc(C[C@@H]2COc3ccc(OCc4nc5cc(F)ccc5s4)cc3[C@@H]2O)c1 [(+)-CP-85958] | 70 |
| COc1ccc(-c2ccc(OCc3cc(C(=O)[N-]S(=O)(=O)c4ccccc4C)oc3C)cc2)nc1.[Na+] | 58 |
| Cl.Cl.Cl.Cl.N=C(N)NCCCCC(=O)Nc1cc(C(F)(F)F)cc(NC(=O)c2cc(C(=O)Nc3cc(C(F)(F)F)cc(NC(=O)CCCCNC(=N)N)c3O[C@@H]3CCNC3)ncn2)c1O[C@@H]1CCNC1 | 11 |
| COc1ccc(/C=C/CCCCOc2ccc(C(=O)c3cccc(C(=O)O)c3)cc2CCC(=O)O)cc1 | 43 |
